Test system: c-Src;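 also: 11-residue human phosphosite peptides and single-mutation variants displayed on the E. coli surface, counted by deep sequencing, each peptide's frequency after selection divided by its frequency in the unselected input library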;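 also: frequency after pTyr selection over input frequency; kinase dosed for 20-30% of maximal phosphorylation in three min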
METHOD: phosphorylation enrichment, bacterial display (enrichment ratio); higher = better substrate or ligand; peptides without Tyr show the background
ASSAY_READOUT: phosphorylation enrichment
API doc: respond with a numeric literal and nothing else, no unit.

Example sequences with recorded phosphorylation enrichment:
SGPRRYTIAAL [TTR_Y125] = 0.498
MARDISRASYY [ALK_Y1278_Y1278S] = 0.463
TLRKTYGEMAD [ALB_Y108_E106K] = 0.419

Kindly note the recorded phosphorylation enrichment for VPTSKYRGGGG [HBA1_Y141_L137P] , which is 0.363

Kindly note the recorded phosphorylation enrichment for REVPVYTYSEP [FAM120B_Y368_D370Y] , which is 5.2

Kindly note the recorded phosphorylation enrichment for FASALYRQRRS [FGF11_Y162_YF] , which is 0.577
